Below, each of the compounds is paired with its reported normalized growth value.
# assayName: chemical genetic growth profiling, strain panel (AID 1159580);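 note: tested at 20 µM; growth read once vehicle control cultures reached saturation at 30 °C; 1 = growth at the plate median or of vehicle wells; lower values mean less growth of the strain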
# conditionInfo: S. cerevisiae deletion strains, growth OD, locus YDR335W, strain msn5, hits give low values
The whole screen tested about 5,500 compounds, of which about 2,000 (36%) were called active. Inconclusive results (about 18%) are left out. The list shows a part of the results.
Lab note: jot down the number only; don't add units.

Query block: Which normalized growth is reported for this compound? CC(O)(P(=O)(O)O)P(=O)(O)O
Result block: 0.991

Query block: Which normalized growth is reported for this compound? COC1C=CC23c4cc5c(cc4CN(CC2O)[C@@H]3C1)OCO5 (stereo partly specified)
Result block: 0.959

Query block: Which normalized growth is reported for this compound? CN(C/C=C/C#CC(C)(C)C)Cc1cccc2ccccc12
Result block: 0.219

Query block: Which normalized growth is reported for this compound? O=c1[nH]c(=O)n(C2C[C@H](O)[C@@H](CO)O2)cc1C(F)(F)F (stereo partly specified)
Result block: 0.96

Query block: Which normalized growth is reported for this compound? CC(C)/C(O)=C1/C(=O)O[C@@H](c2ccoc2)[C@]2(C)C(O)[C@@H](O)[C@@]34OC5(C)OC67CC(C)(C(O)[C@]6(O)[C@@H](O)[C@]3(O5)C12)[C@H](CC(=O)O)[C@]74C (stereo partly specified)
Result block: 0.987

Query block: Which normalized growth is reported for this compound? c1ccc2c(CC3=NCCN3)cccc2c1
Result block: 0.981
